# target_or_system: human GLP-1R receptor (Homo sapiens)
# Construct: expressed in transfected cells
# Sequence (P43220 24-463): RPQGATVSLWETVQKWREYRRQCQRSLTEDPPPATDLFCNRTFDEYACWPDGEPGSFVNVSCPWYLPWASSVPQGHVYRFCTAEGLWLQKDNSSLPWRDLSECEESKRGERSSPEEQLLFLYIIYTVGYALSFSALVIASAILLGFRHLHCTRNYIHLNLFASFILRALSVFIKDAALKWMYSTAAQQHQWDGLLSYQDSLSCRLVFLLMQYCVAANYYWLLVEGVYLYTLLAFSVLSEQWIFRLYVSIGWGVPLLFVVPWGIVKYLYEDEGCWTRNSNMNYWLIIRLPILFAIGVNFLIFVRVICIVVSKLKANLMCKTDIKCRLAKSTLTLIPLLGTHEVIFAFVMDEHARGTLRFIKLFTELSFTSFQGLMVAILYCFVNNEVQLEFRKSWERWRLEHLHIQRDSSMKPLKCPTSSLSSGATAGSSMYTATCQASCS
# test_details: GLP-1R low expression cell assay (cAMP TR-FRET, CHO-K1_hGLP-1Rlow_clone10 cells)
# Format: cell-based
# test_context: cAMP TR-FRET, 30 min at 25° C.
pEC50: −log10 of the molar value.
endpoint_name: pEC50

The cases that follow already have their pEC50 on record.
Cn1c(CN2CCC(c3cccc(OCc4ccc(C(F)(F)F)cn4)n3)CC2)nc2c(OC(F)F)cc(C(=O)O)cc21 | 6.00 to 7.00
C[C@@H](F)Oc1cc(C(=O)O)cc2c1nc(CN1CCC(c3cccc(OCc4ccc(Cl)cc4F)n3)CC1)n2C (single isomer, unassigned) | 7.00 to 8.00
COc1cc(C(=O)O)cc2c1nc(CN1CCC(c3cccc(OCc4ccc(Cl)c5c4OCC5)n3)CC1)n2C | > 8.00

Now, please, on to the next molecule.
I'd like to know its pEC50. The molecule in question is Cn1c(CN2CCC(c3cc(OCc4ccc(Cl)cc4F)ccc3F)CC2)nc2c(OC(F)F)cc(C(=O)O)cc21
< 6.00
